assay: Displacement of [3H]flumazenil from GABAA/BzR complex in bovine cerebral cortex membrane; type: cell membranes, Bos taurus
Categorize each record by its Ki using low = under 10 nM, medium = from 10 nM up to 100 nM, high = 100 nM and over

CC(=O)c1cnn2c1n[n+]([O-])c1ccc(Cl)cc12	high
CC(=O)c1cnn2c1n[n+]([O-])c1ccc(Oc3ccccc3)cc12	medium
CCOc1ccc2c(c1)n1ncc(C(=O)c3cccs3)c1n[n+]2[O-]	medium

Now examine the next entry.
// return the class label for `CCOc1ccc2c(c1)n1ncc(C(=O)c3ccc(OC)cc3)c1n[n+]2[O-]`
high

###

test: Displacement of [3H]flumazenil from GABAA/BzR complex in bovine cerebral cortex membrane; type: cell membranes, Bos taurus
pKi overview
Remember, pKi is on a log scale: it is -log10 of the molar concentration.

CCOc1ccc2c(c1)n1ncc(C(C)=O)c1n[n+]2[O-]	6.04
O=C(c1cccnc1)c1cnn2c1n[n+]([O-])c1ccc(Cl)cc12	5.62
CCOc1ccc2c(c1)n1ncc(C(=O)c3ccco3)c1n[n+]2[O-]	7.55

Would you kindly share the measured pKi for `O=C(c1ccc[nH]1)c1cnn2c1n[n+]([O-])c1ccc(Cl)cc12` ?
8.40

Would you kindly repeat that for `O=C(c1ccc2c(c1)OCO2)c1cnn2c1n[n+]([O-])c1ccc(Cl)cc12` ?
5.54

And what about the compound `COc1ccc(C(=O)c2cnn3c2n[n+]([O-])c2ccc(Cl)cc23)cc1` ?
5.91

What about `O=C(c1cccs1)c1cnn2c1n[n+]([O-])c1ccc(Cl)cc12` ?
7.21

Then `Cn1ccc(C(=O)c2cnn3c2n[n+]([O-])c2ccc(Cl)cc23)c1` ?
6.42

What do we get for `Cn1cccc1C(=O)c1cnn2c1n[n+]([O-])c1ccc(Oc3ccccc3)cc12` ?
5.89
